TEST_TARGET: human Orexin 1 receptor (Homo sapiens)
Construct: stably expressing the full-length human Orexin 1 receptor; expressed in transfected cells; host or cells: CHO-K1 (CHO-K1/hOX1), co-expressing aequorin
Sequence (O43613 1-425): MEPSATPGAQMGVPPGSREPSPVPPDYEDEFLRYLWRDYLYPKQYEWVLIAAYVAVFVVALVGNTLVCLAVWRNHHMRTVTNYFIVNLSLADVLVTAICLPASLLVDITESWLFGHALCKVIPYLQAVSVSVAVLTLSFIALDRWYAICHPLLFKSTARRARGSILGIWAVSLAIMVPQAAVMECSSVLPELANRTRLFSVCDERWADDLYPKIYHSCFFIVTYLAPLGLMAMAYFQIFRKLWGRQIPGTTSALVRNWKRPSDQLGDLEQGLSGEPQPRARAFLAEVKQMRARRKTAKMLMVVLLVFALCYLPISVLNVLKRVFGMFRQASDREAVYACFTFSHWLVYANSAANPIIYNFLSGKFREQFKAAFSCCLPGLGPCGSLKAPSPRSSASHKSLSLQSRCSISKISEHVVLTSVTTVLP
TEST_SUMMARY: Assay A: In vitro testing of OX1R potency: OX1R IP1 (HTRF, CHO-K1/hOX1 cells, Orexin A as agonist)
Type: cell-based
CONDITION_SET: Orexin A 0.5 nM; read-out: OX1R Kb (Orexin A concentration used)
Decision: Kb >= 0.4 nM yields Satisfied, all other cases yield Not satisfied.

Req: Please check the record "CCN(C(=O)c1ccc(C#N)cc1-n1nccn1)[C@@H](C)COc1ccc(C(F)(F)F)cn1" and state if its Kb is at or above 0.4 nM.
Resp: Satisfied

Req: Decide: Kb of "CCN(C(=O)c1cc(F)ccc1-n1nccn1)[C@@H](C)COc1ncc(C(F)(F)F)cc1F" >= 0.4 nM?
Resp: Satisfied

Req: Determine whether measured Kb meets or exceeds 0.4 nM for "CCN(C(=O)c1ccccc1-c1ncccn1)[C@@H](C)COc1ccc(Br)cn1"
Resp: Not satisfied

Req: For this compound, is measured Kb 0.4 nM or higher? "CCN(C(=O)c1cccc(F)c1-n1nccn1)[C@@H](C)COc1ncc(Br)cc1F"
Resp: Satisfied

Req: Please tell me: is the compound "CCN(C(=O)c1cc(F)ccc1-c1ncccn1)[C@@H](C)COc1ccc(Br)cn1" at or over 0.4 nM in terms of Kb?
Resp: Not satisfied

Req: Kb >= 0.4 nM for "CCN(C(=O)c1cccc(F)c1-c1nnc(C)o1)[C@@H](C)COc1ccc(Cl)cn1" ?
Resp: Satisfied

Consider now this further compound.
Req: Can "CCN(C(=O)c1ccccc1-c1nnc(C)o1)[C@@H](C)COc1ncc(C(F)(F)F)cc1F" be said to have Kb at or above 0.4 nM?
Resp: Satisfied

* * *

TEST_TARGET: human Orexin 1 receptor (Homo sapiens)
Construct: stably expressing the full-length human Orexin 1 receptor; expressed in transfected cells; host or cells: CHO-K1 (CHO-K1/hOX1), co-expressing aequorin
Sequence (O43613 1-425): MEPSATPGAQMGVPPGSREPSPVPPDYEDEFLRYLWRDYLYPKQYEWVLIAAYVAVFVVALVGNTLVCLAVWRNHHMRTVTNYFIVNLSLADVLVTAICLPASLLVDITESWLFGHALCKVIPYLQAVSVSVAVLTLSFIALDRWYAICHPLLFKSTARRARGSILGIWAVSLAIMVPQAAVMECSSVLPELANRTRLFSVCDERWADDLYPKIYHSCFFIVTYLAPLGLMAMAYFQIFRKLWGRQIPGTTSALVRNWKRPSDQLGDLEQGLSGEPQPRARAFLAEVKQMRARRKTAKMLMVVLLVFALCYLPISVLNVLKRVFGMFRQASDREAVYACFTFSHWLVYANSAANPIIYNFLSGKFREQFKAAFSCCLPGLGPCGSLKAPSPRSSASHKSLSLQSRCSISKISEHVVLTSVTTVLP
TEST_SUMMARY: Assay A: In vitro testing of OX1R potency: OX1R IP1 (HTRF, CHO-K1/hOX1 cells, Orexin A as agonist)
Format: cell-based
CONDITION_SET: Orexin A 0.5 nM; read-out: OX1R Kb (Orexin A concentration used)
MEASUREMENT_TYPE: log10 Kb (log10 of the value in nM)
Log scale reminder: Kb in nM, then log10 taken.

Field: example entries. Status: answers known.
Req: Please list log10 Kb recorded for the compound CCN(C(=O)c1ccc(F)cc1-c1nnc(C)o1)[C@@H](C)COc1ccc(C(F)(F)F)cn1 [Example 14]
Resp: 0.65

Req: Respond only with log10 Kb recorded for CCN(C(=O)c1ccccc1-c1cnnc(C)c1)[C@@H](C)COc1ccc(C(F)(F)F)cn1 [Example 84]
Resp: 0.93

Req: Please look at this compound and report its log10 Kb: CCN(C(=O)c1ccccc1-c1ccn(C)c(=O)c1)[C@@H](C)COc1ccc(C(F)(F)F)cn1 [Example 81]
Resp: 0.46

Req: Please report log10 Kb for the following compound: CCN(C(=O)c1ccccc1-c1ccn(C)n1)[C@@H](C)COc1ccc(C(F)(F)F)cn1 [Example 74]
Resp: -0.41

Req: Return log10 Kb for the following compound: CCN(C(=O)c1cc(F)ccc1-n1cccn1)[C@@H](C)COc1ncc(C(F)(F)F)cc1F [Example 124]
Resp: 0.58

Further cases:
Req: Look up log10 Kb of CCN(C(=O)c1cccc(C)c1-c1nnc(C)o1)[C@@H](C)COc1ccc(Cl)cn1 [Example 39] and report it.
Resp: -0.06

Req: Note log10 Kb for the compound shown: CCN(C(=O)c1cc(F)ccc1-n1nccn1)[C@@H](C)COc1ccc(Cl)cn1 [Example 29]
Resp: 0.00

Req: Return value of log10 Kb for input CCN(C(=O)c1ccccc1-c1cnc(C)nc1)[C@@H](C)COc1ccc(C(F)(F)F)cn1 [Example 85] , no commentary.
Resp: 0.93

Req: Indicate the recorded log10 Kb value for this compound: CCN(C(=O)c1ccccc1-c1ccc(=O)n(C)c1)[C@@H](C)COc1ccc(C(F)(F)F)cn1 [Example 96]
Resp: 0.87

Req: Consider the compound CCN(C(=O)c1cc(F)c(F)cc1-n1nccn1)[C@@H](C)COc1ccc(Cl)cn1 [Example 30] and give its recorded log10 Kb.
Resp: 0.36

Req: Read the entry CCN(C(=O)c1cc(F)c(F)cc1-n1nccn1)[C@@H](C)COc1ncc(C(F)(F)F)cc1F [Example 52] and write its reported log10 Kb.
Resp: 0.32

Req: Consider the compound CCN(C(=O)c1cc(F)c(F)cc1-n1nccn1)[C@@H](C)COc1ccc(C(F)(F)F)cn1 [Example 4] and give its recorded log10 Kb.
Resp: -0.30

* * *

TEST_TARGET: human Orexin 1 receptor (Homo sapiens)
Construct: stably expressing the full-length human Orexin 1 receptor; expressed in transfected cells; host or cells: CHO-K1 (CHO-K1/hOX1), co-expressing aequorin
TEST_SUMMARY: Assay A: In vitro testing of OX1R potency: OX1R IP1 (HTRF, CHO-K1/hOX1 cells, Orexin A as agonist)
Assay type: cell-based
CONDITION_SET: Orexin A 50 nM; read-out: OX1R Kb (Orexin A concentration used)
Readings of Kb for the listed compounds
Use nM as the unit, but write only the number.

Field: example entries. Status: answers known.
Req: Tell me measured Kb for CCN(C(=O)c1cc(F)ccc1-c1ncccn1)[C@@H](C)COc1ccc(Br)cn1 [Example 120] please.
Resp: 0.12

Req: Read off the recorded Kb for CCN(C(=O)c1cccc(C)c1-c1nnc(C)o1)[C@@H](C)COc1ncc(C(F)(F)F)cc1F [Example 64]
Resp: 0.22

Req: Using known records, supply Kb for CCN(C(=O)c1ccc(F)c(F)c1-n1nccn1)[C@@H](C)COc1ccc(C(F)(F)F)cn1 [Example 91]
Resp: 0.2

Query compound follows.
Req: Input CCN(C(=O)c1ccccc1-c1nnc(C)o1)[C@@H](C)COc1ccc(C(F)(F)F)cn1 [Example 22] , output reported Kb.
Resp: 1.2

* * *

TEST_TARGET: human Orexin 1 receptor (Homo sapiens)
Construct: stably expressing the full-length human Orexin 1 receptor; expressed in transfected cells; host or cells: CHO-K1 (CHO-K1/hOX1), co-expressing aequorin
TEST_SUMMARY: Assay A: In vitro testing of OX1R potency: OX1R IP1 (HTRF, CHO-K1/hOX1 cells, Orexin A as agonist)
Assay type: cell-based
CONDITION_SET: OX1R Kb at 50 nM Orexin A
MEASUREMENT_TYPE: OX2R Kb/OX1R Kb
Give your answer as a number; write no unit.

Req: Name the recorded OX2R Kb/OX1R Kb of the compound listed here: CCN(C(=O)c1ccc(OC)cc1-c1ncccn1)[C@@H](C)COc1ccc(C(F)(F)F)cn1 [Example 118]
Resp: 2875

* * *

Consider the following compounds and their measured half-life at 1 μM readings.
TEST_SUMMARY: Assay C: Metabolic stability in human liver microsomes (Human MST)
Format: in vitro ADME
CONDITION_SET: pooled human liver microsomes, pH 7.6; human liver microsomes 1 mg/mL, compound 1 μM, 37° C., NADPH; read-out: Human MST t1/2
Write the number in h without appending the unit.

Req: State its half-life at 1 μM for this compound: CCN(C(=O)c1cccc(Cl)c1-n1nccn1)[C@@H](C)COc1ccc(OC(F)(F)F)cn1 [Example 134]
Resp: 1.07

Req: Identify measured half-life at 1 μM associated with CCN(C(=O)c1cccc(F)c1-c1nnc(C)o1)[C@@H](C)COc1ccc(C(F)(F)F)cn1 [Example 18]
Resp: 1.23

Req: Specify reported half-life at 1 μM for the compound shown: CCN(C(=O)c1ccccc1-c1cnn(C)c1)[C@@H](C)COc1ncc(C(F)(F)F)cc1F [Example 132]
Resp: 0.183

Now look at this one.
Req: Item CCN(C(=O)c1ccccc1-c1nnc(C)o1)[C@@H](C)COc1ccc(C(F)(F)F)cn1 [Example 22] : provide half-life at 1 μM
Resp: 1.4
